For each of the compounds below, state its IC50.
# System: HUVEC
# method.description: Antiangiogenic activity in HUVEC assessed as inhibition of cell proliferation incubated for 48 hrs by MTT assay
# Assay type: functional, cell-based
# condition.summary: Homo sapiens

Batch of 5 compounds: report IC50 for each.
1. CCN(CC)CCOc1ccc(-n2c3c(c4ccc(OC)cc4c2=O)C(=O)c2cc(OC)ccc2-3)cc1
2. COc1ccc2c(c1)C(=O)c1c-2n(-c2ccc(OCCN(C)C)cc2)c(=O)c2cc(OC)ccc12
3. COc1ccc2c(c1)C(=O)c1c-2n(-c2ccc(OCCCN3CCCCC3)cc2)c(=O)c2cc(OC)ccc12
4. O=C1c2cc(O)ccc2-c2c1c1ccc(O)cc1c(=O)n2-c1ccc(OCCN2CCCC2)cc1
5. COc1ccc2c(c1)C(=O)c1c-2n(-c2ccc(OCCCN(C)C)cc2)c(=O)c2cc(OC)ccc12

Solution:
1. 11.4 µM
2. 35.6 µM
3. > 100 µM
4. 0.8 µM
5. 25 µM

###

For each of the compounds below, state its pIC50.
# Tested on: MCF7
# method.description: Antiproliferative activity against human MCF7 cells incubated for 48 hrs by MTT assay
# Format: functional, cell-based
# condition.summary: MCF7, 48 h
Answers are plain numbers, as −log10 of the molar value.

compound="CC/C(=C(\\c1ccccc1)c1ccc(OCCN(C)C)cc1)c1ccccc1 [TAMOXIFEN]" result_number=5.28
compound=CCN(CC)CCOc1ccc(-n2c3c(c4ccc(OC)cc4c2=O)C(=O)c2cc(OC)ccc2-3)cc1 result_number=6.15
compound=COc1ccc2c(c1)C(=O)c1c-2n(-c2ccc(OCCN3CCCC3)cc2)c(=O)c2cc(OC)ccc12 result_number=6.15
compound=COc1ccc2c(c1)C(=O)c1c-2n(-c2ccc(OCCCN3CCCC3)cc2)c(=O)c2cc(OC)ccc12 result_number=5.49
compound=O=C1c2cc(O)ccc2-c2c1c1ccc(O)cc1c(=O)n2-c1ccc(OCCN2CCCC2)cc1 result_number=5.92

Batch of 4 compounds: report pIC50 for each.
1. O=C1c2cc(O)ccc2-c2c1c1ccc(O)cc1c(=O)n2-c1ccc(OCCN2CCCCC2)cc1
2. COc1ccc2c(c1)C(=O)c1c-2n(-c2ccc(OCCCN3CCCCC3)cc2)c(=O)c2cc(OC)ccc12
3. CCN(CC)CCCOc1ccc(-n2c3c(c4ccc(OC)cc4c2=O)C(=O)c2cc(OC)ccc2-3)cc1
4. CN1CCN(CCOc2ccc(-n3c4c(c5ccc(O)cc5c3=O)C(=O)c3cc(O)ccc3-4)cc2)CC1

Solution:
1. 5.96
2. 5.11
3. 5.64
4. 5.60

Batch of 3 compounds: report pIC50 for each.
1. COc1ccc2c(c1)C(=O)c1c-2n(-c2ccc(OCCN3CCN(C)CC3)cc2)c(=O)c2cc(OC)ccc12
2. COc1ccc2c(c1)C(=O)c1c-2n(-c2ccc(OCCN(C)C)cc2)c(=O)c2cc(OC)ccc12
3. CCN(CC)CCOc1ccc(-n2c3c(c4ccc(O)cc4c2=O)C(=O)c2cc(O)ccc2-3)cc1

Solution:
[5.96, 5.96, 6.10]

###

# Test system: MCF7
# method.description: Antiproliferative activity against human MCF7 cells incubated for 48 hrs by MTT assay
# Assay type: functional, cell-based
# condition.summary: MCF7, 48 h
test.readout: IC50 (µM)
One number for each entry, in µM.

chemical_smiles=COc1ccc2c(c1)C(=O)c1c-2n(-c2ccc(OCCCN(C)C)cc2)c(=O)c2cc(OC)ccc12 test_readout=IC50 measure_unit=µM result_number=1.4
chemical_smiles=COc1ccc2c(c1)C(=O)c1c-2n(-c2ccc(OCCN3CCCCC3)cc2)c(=O)c2cc(OC)ccc12 test_readout=IC50 measure_unit=µM result_number=0.3

Now turn to the next molecule.
Problem: Recorded IC50 of "CN(C)CCOc1ccc(-n2c3c(c4ccc(O)cc4c2=O)C(=O)c2cc(O)ccc2-3)cc1" , please.
Solution: 3.8
